Value Type: melting point

Request: # query: melting point of entry CC(=O)CCc1cc(Cl)cc2nc(-c3ccccc3Cl)oc12 [Example 9]
Response: 109 to 110 °C

Request: Record: COc1ccc(Cc2nc3cc(Cl)cc(CC=NO)c3o2)cc1OC1CCCC1 [Example 26]
Response: 149 to 151 °C

Request: Record: Clc1cc(C#Cc2nccs2)c2oc(Cc3ccccc3Cl)nc2c1 [Example 59(a)]
Response: 149 to 151 °C

---

# Tested on: PDE IV
# Construct: PDE IV IC50; other: Type IV PDE isolated from bovine tracheal smooth muscle; rolipram run in the
# Assay Remarks: Type IV PDE inhibition, hydrolysis of [3H]-cyclic AMP
# Format: biochemical, bovine
# Assay Context: read-out: concentration which yields 50% inhibition of PDE IV (IC50); value of the description; rolipram run in the same assay
Value Type: IC50 (µM)
# output: bare number, implied unit µM

Request: Param readout= IC50; system= PDE IV; entry= COc1ccc(C2CNC(=O)C2)cc1OC1CCCC1 (stereo not shown) [Rolipram, reference compound] ; returns value.
Response: 2.8

---

Give melting point for every item shown.

Request: # query: melting point of entry COc1ccc(Cc2nc3cccc(CCCO)c3o2)cc1OC
Response: 95 to 97 °C

Request: Record: CC(=O)Oc1c(C(C)(C)C)cc(CCc2nc3cc(Cl)cc(CCc4ccccn4)c3o2)cc1C(C)(C)C
Response: 134 to 135 °C

Request: Record: OCCCCCc1cc(Cl)cc2nc(Cc3ccccc3Cl)oc12
Response: 72 to 79 °C

Request: Record: COc1ccc(Cc2nc3cc(Cl)cc(CC=O)c3o2)cc1OC1CCCC1
Response: 66 to 68 °C

Request: Record: NC(=O)CCc1cc(Cl)cc2nc(Cc3ccccc3Cl)oc12
Response: 181 to 183 °C

---

# Test System: PDE III (Homo sapiens, UniProt Q14432)
# Construct: Fractions containing PDE III activity are pooled and dialyzed overnight
# Sequence (Q14432 whole entry): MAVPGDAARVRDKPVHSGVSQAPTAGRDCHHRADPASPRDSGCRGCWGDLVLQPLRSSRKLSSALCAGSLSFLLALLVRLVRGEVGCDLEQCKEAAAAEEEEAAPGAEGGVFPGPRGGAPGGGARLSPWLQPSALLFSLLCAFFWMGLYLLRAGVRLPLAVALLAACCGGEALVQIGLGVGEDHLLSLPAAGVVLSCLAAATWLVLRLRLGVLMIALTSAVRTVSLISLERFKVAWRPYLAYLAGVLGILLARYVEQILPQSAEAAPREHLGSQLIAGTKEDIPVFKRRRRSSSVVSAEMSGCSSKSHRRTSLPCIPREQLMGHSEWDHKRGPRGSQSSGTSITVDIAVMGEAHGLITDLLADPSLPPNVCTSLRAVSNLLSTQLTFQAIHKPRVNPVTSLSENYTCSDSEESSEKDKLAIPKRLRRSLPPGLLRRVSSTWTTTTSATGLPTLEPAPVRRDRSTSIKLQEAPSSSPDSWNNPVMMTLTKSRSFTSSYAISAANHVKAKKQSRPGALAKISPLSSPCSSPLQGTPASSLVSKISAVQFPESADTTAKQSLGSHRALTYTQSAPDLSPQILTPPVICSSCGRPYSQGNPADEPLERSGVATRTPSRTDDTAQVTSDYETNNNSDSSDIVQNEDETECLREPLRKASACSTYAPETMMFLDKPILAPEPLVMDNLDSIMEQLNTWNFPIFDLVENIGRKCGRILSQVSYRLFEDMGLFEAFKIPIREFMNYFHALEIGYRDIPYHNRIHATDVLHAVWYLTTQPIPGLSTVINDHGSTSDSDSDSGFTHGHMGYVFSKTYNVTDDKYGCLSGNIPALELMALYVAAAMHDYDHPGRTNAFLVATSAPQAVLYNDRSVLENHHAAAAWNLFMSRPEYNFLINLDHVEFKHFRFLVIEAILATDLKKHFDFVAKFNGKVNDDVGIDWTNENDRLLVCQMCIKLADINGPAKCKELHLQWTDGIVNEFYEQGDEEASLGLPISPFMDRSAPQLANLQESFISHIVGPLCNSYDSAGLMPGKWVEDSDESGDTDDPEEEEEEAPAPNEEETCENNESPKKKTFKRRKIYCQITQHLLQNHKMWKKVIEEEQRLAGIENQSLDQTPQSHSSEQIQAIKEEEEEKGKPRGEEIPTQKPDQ
# Assay Remarks: Type III PDE inhibition, hydrolysis of [3H]-cyclic AMP
# Assay Context: Type III PDE isolated from human platelets; 0.2 μM cyclic AMP
Where a name gives a salt, the structure may show the parent alone.
IC50 vs 30 µM: less than gives 1; not less than gives -1.

Request: Lab log: compare recorded IC50 with 30 µM; is it strictly lower for COc1ccc(Cc2nc3c(OCc4ccccn4)cccc3o2)cc1OC1CCCC1 [Example 10, Hydrochloride] ?
Response: -1

Request: Record: COC(=O)c1cccc2oc(Cc3cc(C(C)(C)C)c(O)c(C(C)(C)C)c3)nc12
Response: -1

Request: Record: Cc1cc(Cc2nc3c(O)cccc3o2)cc(C)c1O
Response: -1

Request: Record: COc1ccc(Cc2nc3cccc([N+](=O)[O-])c3o2)cc1OC1CCCC1
Response: 1

Request: Record: CC(C)c1cc(Cc2nc3c(O)cccc3o2)cc(C(C)C)c1O
Response: -1

Request: Record: CC(C)c1cc(Cc2nc3cccc(C#Cc4ccccn4)c3o2)cc(C(C)C)c1O
Response: -1

Request: Record: COc1ccc(Cc2nc3c(OC)cccc3o2)cc1OC1CCCC1
Response: -1

Request: Record: COc1ccc(Cc2nc3cccc(NC(=O)OCc4ccccc4)c3o2)cc1OC1CCCC1
Response: -1

Request: Record: OCCCc1cccc2nc(Cc3ccccc3Cl)oc12
Response: -1

Request: Record: COc1ccc(-c2nc3cc(Cl)ccc3o2)cc1OC
Response: -1

Request: Record: COc1ccc(Cc2nc3cc(Cl)cc(Br)c3o2)cc1OC1CCCC1
Response: 1

Request: Record: COc1ccc(CCc2nc3cc(Cl)ccc3o2)cc1OC
Response: -1

Request: Record: COc1ccc(Cc2nc3cccc(NC(=O)c4ccccn4)c3o2)cc1OC1CCCC1
Response: -1

Request: Record: COc1ccc(Cc2nc3cccc(Br)c3o2)cc1OC1CCCC1
Response: 1

Request: Record: CCCc1cc(Cl)cc2nc(Cc3ccc(OC)c(OC4CCCC4)c3)oc12
Response: -1

Request: Record: COc1ccc(Cc2nc3cccc(NC(=O)c4cccnc4)c3o2)cc1OC1CCCC1
Response: -1

Request: Record: COc1ccc(Cc2nc3cccc(NCc4cccnc4)c3o2)cc1OC1CCCC1
Response: -1

Request: Record: COc1ccc(Cc2nc3cc(Cl)cc(CCO)c3o2)cc1OC1CCCC1
Response: -1

Request: Record: COc1ccc(Cc2nc3cc(Cl)cc(CC(=O)O)c3o2)cc1OC1CCCC1
Response: -1

Every entry's value here was drawn from patent US6372770B1.
